# TGT: AChE (acetylcholineserase)
# PROCEDURE TEXT: Ellman spectrophotometric assay, […] nm
# DETAILS: acetylthiocholine iodide substrate; pH 8.0; 10 min preincubation
pIC50: −log10 of the molar value.

STRUCTURE NOTATION | pIC50
Nc1c2c(nc3ccccc13)CCCC2 | 6.08
